# Tgt: T1, human GIP receptor (human, UniProt P48546 22-466)
# T1 sequence (looked up): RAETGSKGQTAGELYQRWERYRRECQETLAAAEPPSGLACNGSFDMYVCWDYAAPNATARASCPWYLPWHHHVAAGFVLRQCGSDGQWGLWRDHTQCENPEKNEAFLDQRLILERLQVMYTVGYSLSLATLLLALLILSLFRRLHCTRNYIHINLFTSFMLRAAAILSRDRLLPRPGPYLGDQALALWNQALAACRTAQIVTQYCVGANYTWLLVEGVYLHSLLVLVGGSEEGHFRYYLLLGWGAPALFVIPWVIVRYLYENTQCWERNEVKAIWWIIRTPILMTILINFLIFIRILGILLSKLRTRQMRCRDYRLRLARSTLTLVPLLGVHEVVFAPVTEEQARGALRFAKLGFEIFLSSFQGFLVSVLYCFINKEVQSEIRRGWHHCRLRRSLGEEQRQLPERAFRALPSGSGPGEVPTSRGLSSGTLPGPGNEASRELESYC
# Assay Info: cell-based or functional assay
*1 amine or outer side, *2 acyl side, *3 side chain or, on linkers, in order; H or OH if unused. Where no end group is shown, it is not given here. Side-chain parts run from the residue outwards. [ ]: non-standard residue; d: D form. The star is where a group is joined. αMePhe(2-F) = C[C@](N)(Cc1ccccc1F)C(=O)O; γGlu = O=C(O)[C@H](CCC(=O)[*:2])N[*:1]; C14 diacid = O=C(O)CCCCCCCCCCCCC(=O)*; αMeY = C[C@](N)(Cc1ccc(O)cc1)C(=O)O; αMeF = C[C@](N)(Cc1ccccc1)C(=O)O; αMeL = CC(C)C[C@](C)(N)C(=O)O; Orn = NCCC[C@H](N)C(=O)O; AEEA = NCCOCCOCC(=O)O; Aib = CC(C)(N)C(=O)O
Property: Emax, cAMP (%)
Dear colleague, please return just the value in %, with no unit written.

Binder: Y[Aib]EGT[αMePhe(2-F)]TSDK([AEEA-AEEA-γGlu-C14 diacid])SI[αMeL]LD[Orn]IAQ[Aib]EFIK([AEEA-AEEA-γGlu-C14 diacid])[αMeY]LIEGGPSSGAPPPS-NH2 [Example 106]
Emax, cAMP, %: 98.7

stdin: Given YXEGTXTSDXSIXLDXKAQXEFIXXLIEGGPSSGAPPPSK (Aib2, αMeF(2F)6, 4Pal10, αMeL13, Orn16, Aib20, D-Glu24, αMeY25, K17 and K40: K(AEEA2-(γ-Glu)-CO-(CH2)10-CH3), C-terminal NH2) [Example 141] , state its recorded Emax, cAMP.
stdout: 98.8

stdin: Emax, cAMP lookup needed for YXEGTXTSDXSIXLDGKAQXEFIXXLIEGGKSSGAPPPS (Aib2, αMeF(2F)6, 4Pal10, αMeL13, Aib20, D-Glu24, αMeY25, K17 and K31: K(AEEA2-(γ-Glu)-CO-(CH2)12-CO2H), C-terminal NH2) [Example 101] , thanks.
stdout: 92.1

stdin: I would be grateful if you could share the reported Emax, cAMP for Y[Aib]EGT[αMePhe(2-F)]TSDV[Aib]I[αMeL]LD[Orn]K([AEEA-AEEA-γGlu-C14 diacid])AQ[Aib]E[αMeF]I[dE][αMeY]LIEGGK([AEEA-AEEA-γGlu-C14 diacid])SSGAPPPS-NH2 [Example 93] .
stdout: 99.4

stdin: Fill in the blank: the reported Emax, cAMP of YXEGTXTSDXSKXLDXKAQXEFIXXLIEGGPSSGAPPPS (Aib2, αMeF(2F)6, 4Pal10, αMeL13, Orn16, Aib20, D-Glu24, αMeY25, K12 and K17: K(AEEA2-(γ-Glu)-CO-(CH2)12-CO2H), C-terminal NH2) [Example 28] is ____.
stdout: 95.4

stdin: Could you tell me which Emax, cAMP is on file for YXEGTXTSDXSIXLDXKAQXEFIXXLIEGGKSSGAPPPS (Aib2, αMeF(2F)6, 3TA10, αMeL13, Orn16, Aib20, D-Glu24, αMeY25, K17 and K31: K(AEEA2-(γ-Glu)-CO-(CH2)12-CO2H), C-terminal NH2) [Example 146] ?
stdout: 76.5

stdin: Need Emax, cAMP of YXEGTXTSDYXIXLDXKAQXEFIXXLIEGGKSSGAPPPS (Aib2, αMeF(2F)6, αMeS11, αMeL13, Orn16, Aib20, D-Glu24, αMeY25, K17 and K31: K(AEEA2-(γ-Glu)-CO-(CH2)12-CO2H), C-terminal NH2) [Example 49] , thanks.
stdout: 91

stdin: Return reported Emax, cAMP; argument: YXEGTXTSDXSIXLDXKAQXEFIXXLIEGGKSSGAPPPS (Aib2, αMeF6, 4Pal10, αMeF13, Orn16, Aib20, D-Glu24, αMeY25, K17 and K31: K(AEEA2-(γ-Glu)-CO-(CH2)12-CO2H), C-terminal NH2) [Example 46]
stdout: 89.5

Data credit: patent US20230265151A1
